We begin with a simple list: items and their reported Dmax.
- Target of assay: HiBit-KRAS^G12C (Homo sapiens, UniProt P01116, G12C)
- Sequence (P01116 1-186 isoform P01116-2 G12C limits assumed): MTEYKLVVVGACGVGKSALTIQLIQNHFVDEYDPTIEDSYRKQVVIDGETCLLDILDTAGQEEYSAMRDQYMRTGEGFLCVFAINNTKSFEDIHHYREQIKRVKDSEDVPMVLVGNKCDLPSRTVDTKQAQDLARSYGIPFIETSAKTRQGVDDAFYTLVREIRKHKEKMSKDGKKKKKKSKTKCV
- Protocol: HiBit degradation assay in SW1573 HiBit-KRas^G12C cells
- Type: cell-based
- Design: expressed in transfected cells; host or cells: SW1573 (clone E6), modified pcDNA3.1 vector, TK promoter
- Condition parameters: SW1573, SW1573 HiBit-KRas^G12C, 0.1% DMSO, 24 hours; read-out: KRas^G12C-HiBit (SW1573; 0.1% DMSO) Dmax**

Check out these entries, answers already filled in.
- Chemical string: "C=CC(=O)N1CCN(c2nc(O[C@H](C)CN3CCC(OCCOCCOc4cc(-c5scnc5C)ccc4CNC(=O)[C@@H]4C[C@@H](O)CN4C(=O)[C@H](c4cc(C)no4)C(C)C)CC3)nc3c(F)c(-c4cc(O)cc5ccccc45)c(Cl)cc23)CC1"
  Observed: "< 35%"
- Chemical string: "C=CC(=O)N1CCN(c2nc(O[C@H](C)CN3CCC(OCCOCCOCCOCCOCCOc4cc(-c5scnc5C)ccc4CNC(=O)[C@@H]4C[C@@H](O)CN4C(=O)[C@@H](c4cc(C)no4)C(C)C)CC3)nc3c(F)c(-c4cc(O)cc5ccccc45)c(Cl)cc23)CC1"
  Observed: "35 to 70%"
- Chemical string: "C=CC(=O)N1C[C@H](C)N(c2nc(OCCN3CCC(COCC(=O)N[C@H](C(=O)N4C[C@H](O)C[C@H]4C(=O)N[C@@H](C)c4ccc(-c5scnc5C)cc4)C(C)(C)C)CC3)nc3c(F)c(-c4cc(O)cc5ccccc45)c(Cl)cc23)C[C@H]1C"
  Observed: "35 to 70%"
- Chemical string: "C=CC(=O)N1CCN(c2nc(O[C@H](C)CN3CCC(COCC(=O)N[C@H](C(=O)N4C[C@H](O)C[C@H]4C(=O)N[C@@H](C)c4ccc(-c5scnc5C)cc4)C(C)(C)C)CC3)nc3c(F)c(-c4cc(O)cc5ccccc45)c(Cl)cc23)CC1"
  Observed: "35 to 70%"
- Chemical string: "C=CC(=O)N1CCN(c2nc(OCCN3CCC(OCCOCCOCC(=O)N[C@H](C(=O)N4C[C@H](O)C[C@H]4C(=O)N[C@@H](C)c4ccc(-c5scnc5C)cc4)C(C)(C)C)CC3)nc3c(F)c(-c4cc(O)cc5ccccc45)c(Cl)cc23)CC1"
  Observed: "< 35%"
- Chemical string: "C=C(F)C(=O)N1CCN(c2nc(OCCN3CCC(OCCOc4cc([C@H](C(=O)N5C[C@H](O)C[C@H]5C(=O)N[C@@H](C)c5ccc(-c6scnc6C)cc5)C(C)C)on4)CC3)nc3c(F)c(-c4cc(O)cc5ccccc45)c(Cl)cc23)C[C@@H]1CC#N"
  Observed: "> 70%"

Turning to the following compound.
Asked: Form: Entry = "C=CC(=O)N1CCN(c2nc(O[C@H](C)CN3CCC(OCCOCC(=O)N[C@H](C(=O)N4C[C@H](O)C[C@H]4C(=O)N[C@@H](C)c4ccc(-c5scnc5C)cc4)C(C)(C)C)CC3)nc3c(F)c(-c4cc(O)cc5ccccc45)c(Cl)cc23)C[C@H]1C" | System = HiBit-KRAS^G12C (Homo sapiens, UniProt P01116, G12C) | Dmax = ____
Given back: < 35%
